Recorded measurements of T/C, one per entry
tested on: CD2F1 mice, L1210 leukemia ip, survival T/C; assay: NCI In Vivo Anticancer Drug Screen. Data for tumor model L1210 Leukemia (intraperitoneal) in CD2F1 (CDF1) mice; conditions: endpoint: mean survival time; dose: 100.0 mg/kg/injection; schedule: Q04DX003 (ip); vehicle: Klucel (hydroxypropylcellulose) (HPC); higher = longer survival
Toxic doses and inconclusive results are not listed.

compound="CCOC(=O)C(C)C(O)(c1ccccc1)c1ccccc1 (stereo not given)" value_observed="95 % of control"
compound=CC(=O)NCC1(c2ccccc2)CCN(CCCC(=O)c2ccc(F)cc2)CC1 value_observed="95 % of control"
compound="CCCC(=O)C(CC)C(O)(C(F)(F)F)C(F)(F)F (stereo not given)" value_observed="95 % of control"
compound=C(=N\Nc1nc2ccccc2s1)/c1ccnc2ccccc12 value_observed="94 % of control"
compound="CC(=O)C(C(c1ccccc1)N1CCCc2ccccc21)N1CCOCC1 (stereo not given)" value_observed="98 % of control"

The recorded T/C for entry Nc1ccn(CCC(COCc2ccccc2)COCc2ccccc2)c(=O)n1 equals 100 % of control

The recorded T/C for entry C/C(=N/NC(=O)c1ccccc1)c1ccccc1O equals 97 % of control

The recorded T/C for entry COc1ccc(NC(=O)Oc2cccc3ccccc23)c(Cl)c1 equals 106 % of control

The recorded T/C for entry CCOC(=O)c1cc(OC(C)=O)c2c(ccc3ccccc32)c1C equals 101 % of control

The recorded T/C for entry Nc1ncnc2sc3c(c12)CCCC3 equals 100 % of control

---

Recorded measurements of T/C, one per entry
test system: CD2F1 mice, L1210 leukemia ip, survival T/C; assay: NCI In Vivo Anticancer Drug Screen. Data for tumor model L1210 Leukemia (intraperitoneal) in CD2F1 (CDF1) mice; settings: endpoint: mean survival time; dose: 100.0 mg/kg/injection; schedule: Q01DX005 (ip); vehicle: water; higher = longer survival
Toxic doses and inconclusive results are not listed.

Reference set (5 entries):
compound="COC(=O)c1ncn(C2OC(COC(C)=O)C(OC(C)=O)C2OC(C)=O)c1C(=O)OC (stereo not drawn)" value_observed="100 % of control"
compound="CN1CCN(Cc2cn(C3CC(O)C(CO)O3)c(=O)[nH]c2=O)CC1 (stereo not drawn)" value_observed="95 % of control"
compound=NCCc1nc[nH]c1[N+](=O)[O-] value_observed="103 % of control"
compound="CCOc1nc(N)nc2c1ncn2C1CC(O)C(CO)O1 (stereo not drawn)" value_observed="109 % of control"
compound=O=C(O)c1[nH]nc(-c2ccc([N+](=O)[O-])cc2)c1[N+](=O)[O-] value_observed="93 % of control"

The recorded T/C for entry C1CN2CCN1CC2.O.[Cl][Pt][Cl] equals 96 % of control

The recorded T/C for entry CC(=O)c1cc(C)c[n+](C2OC(COC(=O)c3ccccc3)C(OC(=O)c3ccccc3)C2O)c1 (stereo not drawn) equals 93 % of control

The recorded T/C for entry COc1cccc(CN2CCCNCC2)c1 equals 94 % of control

---

Recorded measurements of T/C, one per entry
tested on: CD2F1 mice, L1210 leukemia ip, survival T/C; assay: NCI In Vivo Anticancer Drug Screen. Data for tumor model L1210 Leukemia (intraperitoneal) in CD2F1 (CDF1) mice; settings: endpoint: mean survival time; dose: 100.0 mg/kg/injection; schedule: Q04DX003 (ip); vehicle: saline with Tween-80; higher = longer survival
Inconclusive results and toxic doses are left out.

Reference set (5 entries):
compound=Clc1cc(Cl)c(C[N+]23CN4CN(CN(C4)C2)C3)cc1Cl value_observed="106 % of control"
compound="CC(C)(C)OC(=O)N1CCCC1C(=O)O (stereo not drawn)" value_observed="96 % of control"
compound=O=C(O)c1cscc1-c1ccccc1 value_observed="104 % of control"
compound=Cc1cccc(NC(=O)c2cccc(Cl)c2)c1C value_observed="96 % of control"
compound=Cc1c(Cl)c(C)c(Cl)c(C)c1Cl value_observed="101 % of control"

The recorded T/C for entry CCCCCCCCCCCCCCCCCCCCCC(O)(CC)CC equals 94 % of control

The recorded T/C for entry CCCCOC(=O)C(C)OC(=O)Nc1cccc(Cl)c1 (stereo not drawn) equals 100 % of control

The recorded T/C for entry O=S(CC(O)(c1ccccc1)c1ccccc1)c1ccccc1 (stereo not drawn) equals 93 % of control

The recorded T/C for entry CCCCCCCCCCCCCCCCCC(=O)NN equals 91 % of control

The recorded T/C for entry O=[N+]([O-])c1ccc(C2N(Cc3ccc(Cl)cc3)CCN2Cc2ccc(Cl)cc2)cc1 equals 98 % of control

The recorded T/C for entry C=CCNC(=O)/C=C/C(=O)NCC=C equals 97 % of control
